In this section, each of the compounds is paired with its reported half-life.
# Assay method text: Pharmacokinetics test in SD rats
# Assay type: in vivo
# Assay context: rat, plasma; male SD rats, iv 1 mg/kg
Value kind: half-life

test_smiles=O=C(O)c1ccc2c(c1)Oc1ccc(OCc3c(-c4c(Cl)cccc4Cl)noc3C3CC3)nc1C(F)=C2 val="40.9 min"
test_smiles=O=C(O)c1ccc2c(c1)Oc1ccc(OCc3c(-c4c(Cl)cccc4Cl)noc3C3CC3)nc1CO2 val="53 min"
test_smiles=O=C(O)c1ccc2c(c1)Oc1ccc(OCc3c(-c4c(Cl)cccc4Cl)noc3C3CC3)nc1C(F)(F)C2 val="47.6 min"
test_smiles=O=C(O)c1ccc2c(c1)Oc1ccc(OCc3c(-c4c(Cl)cccc4Cl)noc3C3CC3)nc1C=C2F val="43.4 min"

* * *

# Assay method text: Pharmacokinetics test in SD rats
# Assay type: in vivo
# Assay context: rat, plasma; male SD rats, po 5 mg/kg
Value kind: AUC(0-t)

molecule="O=C(O)c1ccc2c(c1)Oc1ccc(OCc3c(-c4c(Cl)cccc4Cl)noc3C3CC3)nc1C=C2F [Example 1]" value_kind=AUC(0-t) val="4180 ng·h/mL"
molecule="O=C(O)c1ccc2c(c1)Oc1ccc(OCc3c(-c4c(Cl)cccc4Cl)noc3C3CC3)nc1C(F)(F)C2 [Example 10]" value_kind=AUC(0-t) val="5790 ng·h/mL"
molecule="O=C(O)c1ccc2c(c1)Oc1ccc(OCc3c(-c4c(Cl)cccc4Cl)noc3C3CC3)nc1C(F)=C2 [Example 5]" value_kind=AUC(0-t) val="7450 ng·h/mL"
molecule="O=C(O)c1ccc2c(c1)Oc1ccc(OCc3c(-c4c(Cl)cccc4Cl)noc3C3CC3)nc1CO2 [Example 2]" value_kind=AUC(0-t) val="4110 ng·h/mL"

* * *

In this section, each of the compounds is paired with its reported EC50.
# Study target: FXR ligand binding domain (LBD) (Homo sapiens (Human), UniProt Q96RI1)
# Sequence (Q96RI1 261-481): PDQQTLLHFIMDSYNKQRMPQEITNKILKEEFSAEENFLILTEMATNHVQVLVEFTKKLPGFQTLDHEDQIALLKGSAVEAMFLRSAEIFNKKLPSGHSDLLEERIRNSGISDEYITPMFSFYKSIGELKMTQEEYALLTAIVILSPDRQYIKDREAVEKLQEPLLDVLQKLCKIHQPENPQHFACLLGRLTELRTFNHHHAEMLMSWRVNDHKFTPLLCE
# Assay method text: Mammalian one hybrid (M1H) GAL4 reporter gene assay in HEK293 cells
# Format: cell-based
# Assay context: GAL4 reporter gene test
Value kind: EC50 (nM)

compound="O=C(O)c1ccc2c(c1)Oc1ccc(OCc3c(-c4c(Cl)cccc4Cl)noc3C3CC3)nc1C(C1CC1)=C2 [Example 16]" units_of_measure=nM val=5
compound="O=C(O)c1ccc2c(c1)Oc1ccc(OCc3c(-c4c(Cl)cccc4Cl)noc3C3CC3)nc1C(C1CC1)C2 (stereo not shown) [Example 17]" units_of_measure=nM val=65
compound="O=C(O)c1ccc2c(c1)Oc1ccc(OCc3c(-c4c(Cl)cccc4Cl)noc3C3CC3)nc1C(C(F)(F)F)C2 (stereo not shown) [Example 8]" units_of_measure=nM val=26
compound="CC1=Cc2nc(OCc3c(-c4c(Cl)cccc4Cl)noc3C3CC3)ccc2Oc2cc(C(=O)O)ccc21 [Example 18]" units_of_measure=nM val=93
